FYI, the data here is from PubChem BioAssay.

Examples of compounds with documented inhibition follow.
Assay Overview: human hepatoma cell viability loss – ATP luminescence, cytotoxicity control for P. falciparum antimalarial project, primary screen (AID 2303);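 also: 0% = DMSO wells and 100% = digitonin-killed cells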
Conditions: HepG2 viability, 24-48 h, at 10 µM, hits give high values

[
  {
    "Compound": "COc1cccc(C(NC(=O)c2ccccc2)c2ccc3cccnc3c2O)c1 (centres undefined)",
    "inhibition, %": 52
  },
  {
    "Compound": "CC[C@H](C)CNC(=O)c1cncc(-c2ccc(CNCCCc3ccccc3)cc2)c1",
    "inhibition, %": 19
  },
  {
    "Compound": "CC(C)N1CCN(C(CN2CCN(CCCOc3ccccc3-c3ccccc3)CC2)c2ccc(F)cc2)CC1 (centres undefined)",
    "inhibition, %": 98
  },
  {
    "Compound": "COc1ccc(-c2cc3ncn(CC(=O)N4CCN(c5cccc(OC)c5)CC4)c(=O)c3s2)cc1",
    "inhibition, %": 49
  },
  {
    "Compound": "COc1cc(Nc2nccc(N3CCC(NC(=O)c4cc5ccccc5s4)C3)n2)cc(OC)c1OC (centres undefined)",
    "inhibition, %": 2
  },
  {
    "Compound": "O=C(NCCN1CCCC1)c1cccc(-c2ccc(-c3nc4ccccc4[nH]3)cc2)c1",
    "inhibition, %": 20
  },
  {
    "Compound": "CC(Cc1ccc(OCc2ccccc2)cc1)Nc1nc2ccccc2c(=O)[nH]1 (centres undefined)",
    "inhibition, %": 2
  },
  {
    "Compound": "Cc1ccccc1CNc1noc(-c2c(-c3ccccc3)noc2C)n1",
    "inhibition, %": -4
  },
  {
    "Compound": "CCC(C)NC(=O)CN1CN(c2ccccc2)C2(CCN(C(=O)c3ccc(C(C)(C)C)cc3)CC2)C1=O (centres undefined)",
    "inhibition, %": -6
  }
]

====

Assay Overview: human hepatoma cell viability loss – ATP luminescence, cytotoxicity control for P. falciparum antimalarial project, primary screen (AID 2303);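 also: 0% = DMSO wells and 100% = digitonin-killed cells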
Conditions: HepG2 viability, 24-48 h, at 10 µM
Calls of active or inactive are those of the source.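 The calls were made as follows: active = inhibition above 50%; inactive = the rest.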
Possible outcomes: 1 (yes) (active), 0 (no) (inactive)

[
  {
    "Molecule": "CNc1ccc(CNCc2ccc(-c3ccc(-c4nc5c(C)cccc5[nH]4)s3)cc2)cc1",
    "Class Label": "0 (no)"
  },
  {
    "Molecule": "O=C(NC1CCN(CCC[C@]2(c3ccc(Cl)c(Cl)c3)CCCN(C(=O)c3ccccc3)C2)CC1)c1ccc(F)cc1",
    "Class Label": "1 (yes)"
  },
  {
    "Molecule": "CC1(C)CCCC(=Cc2ccc(Br)cc2)C1(O)Cn1ccnc1 (centres undefined)",
    "Class Label": "0 (no)"
  },
  {
    "Molecule": "CNCCNCc1ccc(-c2ccc(-c3nc4ccccc4[nH]3)s2)cc1",
    "Class Label": "0 (no)"
  },
  {
    "Molecule": "CN(Cc1cccc(C#N)c1)C1CCN(c2cc(NC(=O)c3cccc(F)c3)ccn2)CC1",
    "Class Label": "0 (no)"
  },
  {
    "Molecule": "Cc1nc(N2CCC(C)CC2)c2c3c(sc2n1)CCCC3",
    "Class Label": "0 (no)"
  },
  {
    "Molecule": "CCN(CC)CCN(Cc1ccc(-c2ccc(C(F)(F)F)cc2)cc1)C(=O)Cn1c(CCc2cccc(F)c2F)nc(=O)c2cc(F)c(F)cc21",
    "Class Label": "0 (no)"
  },
  {
    "Molecule": "C=CCc1cc(Br)ccc1OCCCOc1c(C)nc(N)nc1N",
    "Class Label": "1 (yes)"
  },
  {
    "Molecule": "COc1cccc2cc(C(=O)N[C@@H](CC(C)C)C(=O)Nc3cc(F)ccc3Br)oc12",
    "Class Label": "0 (no)"
  },
  {
    "Molecule": "CCC[C@@H]1CCN[C@H]([C@H](O)c2ccnc3ccc(OC)cc23)C1",
    "Class Label": "0 (no)"
  },
  {
    "Molecule": "CNc1ccc(CNCc2cccc(-c3ccc(-c4nc5c(C)cccc5[nH]4)cc3)c2)cc1",
    "Class Label": "0 (no)"
  },
  {
    "Molecule": "COc1ccc(-c2cccc(NC(=O)c3cccc(C#N)c3)c2)cc1CN1CCCC1",
    "Class Label": "0 (no)"
  },
  {
    "Molecule": "COc1cc2nc(NCCn3cccn3)nc(NCCc3ccccc3)c2cc1OC",
    "Class Label": "0 (no)"
  },
  {
    "Molecule": "Cc1[nH]n(-c2cccc(C(F)(F)F)c2)c(=O)c1-c1ccc(Cl)cc1",
    "Class Label": "0 (no)"
  },
  {
    "Molecule": "CN1CCN(CC(=O)Nc2cccc(-c3ccc(-c4nc5ccc(F)cc5[nH]4)cc3)c2)CC1",
    "Class Label": "0 (no)"
  },
  {
    "Molecule": "Cc1ccc2c(c1[N+](=O)[O-])N=NCC2Oc1ccccc1 (centres undefined)",
    "Class Label": "0 (no)"
  },
  {
    "Molecule": "O=S(=O)(c1ccc(Oc2ccccc2)cc1)N(CCC(O)(C(F)(F)F)C(F)(F)F)Cc1cccc(O)c1",
    "Class Label": "0 (no)"
  },
  {
    "Molecule": "CC1CN(Cc2ccccc2)CCN1c1ccc(NC(=O)c2cccs2)cc1 (centres undefined)",
    "Class Label": "0 (no)"
  },
  {
    "Molecule": "O=C(/C=C/c1ccc(Cl)c(Cl)c1)NCCCCCCN1CCN(C(=O)Nc2cccc(Cl)c2)CC1",
    "Class Label": "0 (no)"
  }
]

====

Catalogue of inhibition readings, one per entry.
Study System: L-lactate dehydrogenase (Plasmodium falciparum (isolate CDC / Honduras)) (UniProt Q27743)
Sequence (Q27743 whole entry, looked up): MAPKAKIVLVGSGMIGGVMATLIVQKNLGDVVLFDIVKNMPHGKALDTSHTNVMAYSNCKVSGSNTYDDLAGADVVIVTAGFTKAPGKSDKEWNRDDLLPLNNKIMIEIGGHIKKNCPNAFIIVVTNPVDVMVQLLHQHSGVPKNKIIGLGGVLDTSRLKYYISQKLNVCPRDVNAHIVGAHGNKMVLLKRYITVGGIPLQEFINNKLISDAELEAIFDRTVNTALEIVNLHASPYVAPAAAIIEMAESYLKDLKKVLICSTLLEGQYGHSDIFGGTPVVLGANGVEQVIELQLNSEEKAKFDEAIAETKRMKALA
Assay Overview: PfLDH activity inhibition – cell lysate, 3D7 strain, counter-screen for P. falciparum growth inhibition project (AID 2304);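 also: 0% = vehicle and 100% = reference inhibitor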
Conditions: P. falciparum 3D7 crude extract, LDH APAD/NBT absorbance; at 2 µM; hits give high values

[
  {
    "Compound": "Cc1[nH]c2ccccc2c(=O)c1[N+](=O)[O-]",
    "inhibition [%]": -5
  },
  {
    "Compound": "CCCCn1c(Sc2ccc(C#N)c([N+](=O)[O-])c2)nnc1-c1ccc(OC)cc1",
    "inhibition [%]": 0
  },
  {
    "Compound": "NC1CCN(Cc2cccc(-c3ccc(-c4nc5ccccc5[nH]4)cc3)c2)C1 (stereo not given)",
    "inhibition [%]": -7
  },
  {
    "Compound": "Cc1ccc(Nc2nccc(Nc3ccc4c(C)[nH]nc4c3)n2)cc1F",
    "inhibition [%]": 4
  },
  {
    "Compound": "O=c1cc(NCCC2CC=CCN2Cc2ccc(Cl)c(Cl)c2)[nH]c2ccccc12 (stereo not given)",
    "inhibition [%]": 4
  },
  {
    "Compound": "CC(=O)Nc1ccc(C(=O)Nc2cccc(-c3ccc(-c4nc5ccccc5[nH]4)s3)c2)cn1",
    "inhibition [%]": 2
  },
  {
    "Compound": "CC(Cc1ccc(COc2ccc(CC(CO)NCCc3cccc(Cl)c3)cc2)cc1)NCCc1cccc(Cl)c1 (stereo not given)",
    "inhibition [%]": 5
  },
  {
    "Compound": "COc1ccc(CNCc2ccc(-c3ccc(-c4nc5c(C)cccc5[nH]4)s3)cc2)cc1",
    "inhibition [%]": 3
  },
  {
    "Compound": "Cc1cnc(NCC2CCCCC2)nc1N[C@@H](CO)C(=O)Nc1ccccc1",
    "inhibition [%]": -3
  },
  {
    "Compound": "Cc1cccc(Nc2nccc(NCC(O)c3cccc(C(F)(F)F)c3)n2)c1 (stereo not given)",
    "inhibition [%]": -2
  },
  {
    "Compound": "CC(C)CNCc1ccc(-c2ccc(CN(C(=O)NCCc3ccccc3)C3CCN(Cc4ccccc4)CC3)cc2)cc1",
    "inhibition [%]": -3
  },
  {
    "Compound": "CC(C)(C)c1ccc(CN2CCCCC(NC(=O)c3cc(-c4ccccc4Cl)cs3)C2)cc1 (stereo not given)",
    "inhibition [%]": -1
  },
  {
    "Compound": "Cc1cccc(C(=O)NC(NC(=S)Nc2cc(Cl)ccc2Cl)C(Cl)(Cl)Cl)c1 (stereo not given)",
    "inhibition [%]": 1
  },
  {
    "Compound": "CSc1ccc(CN2CCC(NC(=O)c3ccc(-c4cccc(Cl)c4)s3)CC2)cc1",
    "inhibition [%]": -2
  },
  {
    "Compound": "Oc1ccc2nc(N3CCNCC3)nc(NCCCc3ccccc3)c2c1",
    "inhibition [%]": -4
  }
]

====

Recorded growth inhibition by entry
Assay Overview: antimalarial activity against Dd2 strain (AID 2302);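 also: 0% = DMSO untreated growth and 100% = chloroquine plus artemisinin killed control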
Conditions: P. falciparum Dd2 in RBCs, LDH growth readout, 72 h; at 2 µM; hits give high values

[
  {
    "Molecule": "Cn1nccc1C(=O)NCCNCc1cccc(-c2ccc(-c3nc4ccc(C(F)(F)F)cc4[nH]3)cc2)c1",
    "growth inhibition [%]": 98
  },
  {
    "Molecule": "CNCCNCc1cccc(-c2ccc(-c3nc4ccc(C(F)(F)F)cc4[nH]3)s2)c1",
    "growth inhibition [%]": 85
  },
  {
    "Molecule": "O=C(CC(=O)Nc1cc(Cl)cc(Cl)c1)Nc1cc(Cl)cc(Cl)c1",
    "growth inhibition [%]": 96
  },
  {
    "Molecule": "O=[N+]([O-])c1ccc(CNCCCCCCNCc2ccc([N+](=O)[O-])c3ccccc23)c2ccccc12",
    "growth inhibition [%]": 98
  },
  {
    "Molecule": "O=[N+]([O-])c1cccc(C=NNc2ccnc3ccc(C(F)(F)F)cc23)c1",
    "growth inhibition [%]": 35
  },
  {
    "Molecule": "O=C(Nc1ccc(C(=O)Oc2ccc3ccccc3c2)cc1)N[C@@H](Cc1ccc(O)cc1)C(=O)NC1CCN(Cc2ccc(O)cc2)C1 (some centres not stated)",
    "growth inhibition [%]": 1
  },
  {
    "Molecule": "CCN(CCCN1CCCCC1)c1cc(C)nc(Nc2ccc(C)cc2C(F)(F)F)n1",
    "growth inhibition [%]": 35
  },
  {
    "Molecule": "Cc1[nH]nc2ccc(-c3ccc4nccc(N5CCC(N)CC5)c4c3)cc12",
    "growth inhibition [%]": 100
  },
  {
    "Molecule": "C[C@H](Cc1ccc(C(=O)OCCOC(=O)c2ccc(C[C@@H](C)NC[C@H](O)c3cccc(C(F)(F)F)c3)cc2)cc1)NC[C@H](O)c1cccc(C(F)(F)F)c1",
    "growth inhibition [%]": 86
  },
  {
    "Molecule": "Cc1cccc2[nH]c(-c3ccc(-c4ccc(NC(=O)Nc5ccc(Cl)cc5)cc4)s3)nc12",
    "growth inhibition [%]": 100
  },
  {
    "Molecule": "CSc1ccc2ccccc2c1CNCCCCCCNCc1c(SC)ccc2ccccc12",
    "growth inhibition [%]": 74
  },
  {
    "Molecule": "COc1cc2c(cc1N1CCN(C)CC1)N(C(=O)Nc1ccc(-c3ccncc3)c(Cl)c1Cl)CC2",
    "growth inhibition [%]": 4
  }
]
